system: SNU1; assay: cells; format: functional, cell-based, Homo sapiens; settings: Homo sapiens, SNU1;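 note: growth inhibition of human NCI-SNU-1 cells, measured with a cell viability assay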
Description: SANGER: Inhibition of human NCI-SNU-1 cell growth in a cell viability assay.
Metric Name: IC50

CCC/C=C/C=C/C(=O)O[C@H]1/C(=C/C(=O)OC)C[C@H]2C[C@H]([C@@H](C)O)OC(=O)C[C@H](O)C[C@@H]3C[C@H](OC(C)=O)C(C)(C)[C@](O)(C[C@@H]4C/C(=C/C(=O)OC)C[C@H](/C=C/C(C)(C)[C@]1(O)O2)O4)O3	> 0.008 µM

In plain terms, COc1cc(-c2nn([C@H]3CC[C@H](N4CCN(C(C)=O)CC4)CC3)c3ncnc(N)c23)ccc1NC(=O)c1cc2ccccc2n1C has a documented IC50 of > 5.12 µM

In plain terms, COc1cc2ncn(-c3cc(OCc4ccccc4S(C)(=O)=O)c(C#N)s3)c2cc1OC [GSK-319347A] has a documented IC50 of > 5 µM

In plain terms, COc1cc(N2CCN(C)CC2)ccc1Nc1ncc2c(n1)N(C)c1ccccc1C(=O)N2C has a documented IC50 of > 8 µM

In plain terms, CC1(C)CNc2cc(NC(=O)c3cccnc3NCc3ccncc3)ccc21 has a documented IC50 of > 2 µM
